Value source: PubChem BioAssay AID1259415

# TEST DESCRIPTION: qHTS Assay for inhibitors of the human cytomegalovirus (HCMV); note: % is set by controls: 0 for no effect and ±100 for the full control effect
# CONDITION NOTES: HFF cells, HCMV-luciferase reporter, 72 h; at 57.5 µM
Screen size: about 410,000 compounds; about 18,000 (4.4%) were called active. Not shown: some 7% with an inconclusive outcome. Cut-off read from the data, not from the text of the source: active = activity change below about -60%; inconclusive = no clear call, values can overlap the other calls; inactive = above about -39%. What follows is part of a selection rich in actives, with near analogues and random picks from the rest.
Write down one outcome, taken from 1 = active, 0 = inactive

Before answering, review these 4 worked examples.
>  <COMPOUND>
Cc1ccc(C(=O)Nc2nnc(C3=COCCO3)o2)cc1C

>  <CATEGORY>
0

$$$$
>  <COMPOUND>
COc1ccccc1CNC(=O)CCn1c(=O)c2ccccc2n(CC(=O)Nc2cccc(Cl)c2)c1=O

>  <CATEGORY>
0

$$$$
>  <COMPOUND>
CC(=O)Nc1ccc(S(=O)(=O)N2CCN(CCCOc3cc(C)ccc3C)CC2)cc1

>  <CATEGORY>
1

$$$$
>  <COMPOUND>
COC(=O)c1ccc2c(c1)N(CC(=O)Nc1ccc(C)c(C)c1)C(=O)c1ccccc1S2

>  <CATEGORY>
0

$$$$

Pending compound:
What did the test return for CCOc1ccccc1C(=O)NC1(C(F)(F)F)C(=O)Nc2c1c(=O)[nH]c(=O)n2-c1ccc(F)cc1 (stereo not given) ?
0

---

# TEST DESCRIPTION: qHTS Assay for inhibitors of the human cytomegalovirus (HCMV); note: % is set by controls: 0 for no effect and ±100 for the full control effect
# CONDITION NOTES: HFF cells, HCMV-luciferase reporter, 72 h; at 57.5 µM; hits give low values
# Experimental: NCGC Assay Overview: Infection with human cytomegalovirus (HCMV) continues to pose significant threats for pregnant women and immunocompromised hosts. […] This is a cell-based assay for HCMV inhibition in HFFs cells. […] At 72 h post infection cell lysates were collected and luciferase activity was determined using the Glomax-Multi + Detection System (Promega, Madison, WI). […]
Screen size: about 410,000 compounds; about 18,000 (4.4%) were called active. Roughly 7% stayed inconclusive and do not appear here. This excerpt belongs to a sample that is enriched for actives.
activity change, negative = inhibition values by entry

Some entries whose results are on file:
>  <COMPOUND>
Cc1cc(F)ccc1NS(=O)(=O)c1ccc(-n2cccn2)cc1

>  <MEASUREMENT>
-27.3% (inactive)

$$$$
>  <COMPOUND>
CCn1cc(C(=O)OCC(=O)Nc2cc(C)cc(C)c2)c(=O)c2ccc(C)nc21

>  <MEASUREMENT>
-39.2% (inactive)

$$$$
>  <COMPOUND>
c1ccc2c(c1)OCC(CNc1ncnc3nc[nH]c13)O2 (stereo not given)

>  <MEASUREMENT>
-61.6% (active)

$$$$
>  <COMPOUND>
CC1CCN(c2ccc([N+](=O)[O-])c(SCCO)c2)CC1

>  <MEASUREMENT>
-72.7% (active)

$$$$
>  <COMPOUND>
Cc1n[nH]c(C)c1S(=O)(=O)N1CCCC(C(=O)NCC2COc3ccccc3O2)C1 (stereo not given)

>  <MEASUREMENT>
-37.1% (inactive)

$$$$
>  <COMPOUND>
COC(=O)c1ccc(NC(=O)CSc2n[nH]c(-c3ccccc3)n2)cc1

>  <MEASUREMENT>
16.1% (inactive)

$$$$

Tell us which activity change, negative = inhibition value is on record for `CC1CCN(c2ccc3c(c2)S(=O)(=O)c2cc(C(=O)O)ccc2C3=O)CC1`
22.6% (inactive)

Answer with the recorded activity change, negative = inhibition of `CN(C)S(=O)(=O)c1cccc(NC(=O)COC(=O)C2(c3ccccc3F)CCCC2)c1` only.
-26.2% (inactive)

Quote activity change, negative = inhibition reported for `O=C(NNC1=NCCC1)c1cccc(S(=O)(=O)N2CCCCC2)c1` please.
-11.4% (inactive)

Respond only with activity change, negative = inhibition recorded for `COc1ccc(OC)c(NC(=O)CSc2nc3ccccc3nc2N2CCCCC2)c1`
19.8% (inactive)

Return the recorded activity change, negative = inhibition value; entry: `CCOc1ccc(Cl)cc1-c1cc(C(=O)NCc2cccs2)[nH]n1`
8.26% (inactive)

Read the entry `NS(=O)(=O)c1ccc(NC(=O)COC(=O)C2(c3ccc(F)cc3)CCCC2)cc1` and write its reported activity change, negative = inhibition.
-61.5% (active)

Give reported activity change, negative = inhibition value for `CCOc1ccccc1NC(=O)Cn1nnc(C(=O)Nc2ccc(C)c(C)c2)c1N`
-18.4% (inactive)

Check the records and state activity change, negative = inhibition for `CCC(=O)Nc1c(C(=O)N2CCN(c3ccc(F)cc3)CC2)oc2ccccc12`
-20.1% (inactive)

Answer with reported activity change, negative = inhibition of CC1Cc2ccccc2N1S(=O)(=O)c1cccc(C(=O)NCC(c2ccco2)N2CCCC2)c1 (stereo not given)
-24% (inactive)

Provide only the value of recorded activity change, negative = inhibition for O=C(Cn1nc(Cc2cccnc2)c2ccccc2c1=O)NCC1CCCO1 (stereo not given)
-1.61% (inactive)

Please report activity change, negative = inhibition for the following compound: `Cc1ccc(Cl)cc1NC(=O)/C(C#N)=C\c1cn(Cc2ccc(F)cc2)c2ccccc12`
-6.14% (inactive)

Identify measured activity change, negative = inhibition associated with CSc1ncccc1C(=O)NCC(c1ccco1)N1CCCCC1 (stereo not given)
-4.3% (inactive)

Give the reported value of activity change, negative = inhibition for this record: `CCCN1C(=O)COCc2cc(-c3cccc(CO)c3)ccc21`
6.92% (inactive)

Annotate the compound `Cc1cc(=O)oc(C)c1C(=O)Nc1cnc2ccccc2c1` with its measured activity change, negative = inhibition.
38.4% (inactive)

---

# TEST DESCRIPTION: qHTS Assay for inhibitors of the human cytomegalovirus (HCMV); note: % is set by controls: 0 for no effect and ±100 for the full control effect
# CONDITION NOTES: HFF cells, HCMV-luciferase reporter, 72 h; at 57.5 µM; hits give low values
The campaign covered roughly 410,000 compounds. About 18,000 (4.4%) were called active. Another 7% or so got no clear call; they are omitted. The list comes from a sample in which actives are over-represented; it also holds close analogues and randomly drawn compounds.
Known activity change, negative = inhibition of a selection of compounds
Write the value in % as a bare number.

>  <COMPOUND>
CSc1cccc(NC(=O)CN2C(=O)CCc3cc(S(=O)(=O)N4CCCCC4)ccc32)c1

>  <ENDPOINT UNIT>
%

>  <MEASUREMENT>
23.2

$$$$
>  <COMPOUND>
CCOc1ccccc1C(=O)NCC(c1ccc(N(C)C)cc1)N1CCCC1 (configuration not stated)

>  <ENDPOINT UNIT>
%

>  <MEASUREMENT>
-6.83

$$$$
>  <COMPOUND>
O=C(Nc1c[nH]c(=O)[nH]c1=O)OCc1ccccc1

>  <ENDPOINT UNIT>
%

>  <MEASUREMENT>
46

$$$$

Identify activity change, negative = inhibition associated with the compound COc1ccccc1N1CCN(C2C(=O)c3ccccc3N2C(C)=O)CC1 (configuration not stated)
0

Provide one value: measured activity change, negative = inhibition of `CC(C)CCn1c(=O)c2c(nc3n2CCCN3Cc2ccccc2)n(C)c1=O`
-22.4

Give a short answer stating reported activity change, negative = inhibition for `CC(=O)N1CCc2ccc(N)cc21` .
-18

Recall and state the measured activity change, negative = inhibition for `O=C(CSC1c2ccccc2-c2ccccc21)N/N=C/c1ccccc1` .
35.4

Identify the reported activity change, negative = inhibition for the following entry. O=C(CCC(=O)N1CC2CCCN2c2ccccc21)NCc1ccccc1Cl (configuration not stated)
-6.89

# return recorded activity change, negative = inhibition for input `C=Cn1cc[n+](CC(=O)c2ccc(OC)c(OC)c2)c1`
-10.4

Determine its reported activity change, negative = inhibition: `COc1ccc(Cn2ccnc2SCC(=O)NCc2ccco2)cc1`
-17.3

Entry `O=C(CSc1nnc(-c2ccncc2)n1-c1ccccc1)Nc1ccc(Cl)c(Cl)c1` needs its activity change, negative = inhibition filled in; supply it.
-5.77

Identify the reported activity change, negative = inhibition for the following entry. `O=C(Cn1cc(SCc2cccc(Cl)c2)c2ccccc21)N1CCCCC1`
24.5

Give a short answer stating reported activity change, negative = inhibition for `CN(c1ccccc1)S(=O)(=O)c1ccc(C(=O)NCc2cccnc2)cc1` .
-0.899

Give a short answer stating reported activity change, negative = inhibition for `Cc1ccccc1CNC(=O)c1ccc(NC(=O)N2CCCCc3ccccc32)cc1` .
-4.65

// fetch activity change, negative = inhibition given entry `O=C(COC(=O)c1cc([N+](=O)[O-])ccc1NCc1ccccc1)NC1CCCCC1`
-19.2

---

# TEST DESCRIPTION: qHTS Assay for inhibitors of the human cytomegalovirus (HCMV); note: % is set by controls: 0 for no effect and ±100 for the full control effect
# CONDITION NOTES: HFF cells, HCMV-luciferase reporter, 72 h; at 57.5 µM; hits give low values
Among all 410,000 compounds or so, about 18,000 (4.4%) were called active. Inconclusive results (about 7%) are left out. Only a selection was taken, and actives are over-represented in it overall.
Field: label. Allowed values: TRUE (activity change, negative = inhibition < -70%) or FALSE (activity change, negative = inhibition >= -70%).

Is the reported activity change, negative = inhibition for Cc1ccc2c(c1)C(O)(CC(=O)c1cccc(-n3cccc3)c1)C(=O)N2 (stereo not given) strictly below -70%?
FALSE

Is it true that activity change, negative = inhibition reported for O=C(CC1(O)C(=O)N(CN2CCOCC2)c2ccccc21)c1ccccc1 (stereo not given) is less than -70%?
FALSE

Given `Cc1cc(C)c2cc(C#N)c(N3CCNCC3)nc2c1` , is recorded activity change, negative = inhibition strictly lower than -70%?
FALSE

Bench note: check whether `COc1ccccc1NC(=O)C1CCN(C(=O)c2ccc(C(C)(C)C)cc2)CC1` shows activity change, negative = inhibition below -70%
FALSE
